Data provenance: patent US20240376170A1

Molecular target: T1, IL-2 receptor βγ complex (human, UniProt P14784 27-551; P31785 23-369)
T1 sequence (looked up) 1: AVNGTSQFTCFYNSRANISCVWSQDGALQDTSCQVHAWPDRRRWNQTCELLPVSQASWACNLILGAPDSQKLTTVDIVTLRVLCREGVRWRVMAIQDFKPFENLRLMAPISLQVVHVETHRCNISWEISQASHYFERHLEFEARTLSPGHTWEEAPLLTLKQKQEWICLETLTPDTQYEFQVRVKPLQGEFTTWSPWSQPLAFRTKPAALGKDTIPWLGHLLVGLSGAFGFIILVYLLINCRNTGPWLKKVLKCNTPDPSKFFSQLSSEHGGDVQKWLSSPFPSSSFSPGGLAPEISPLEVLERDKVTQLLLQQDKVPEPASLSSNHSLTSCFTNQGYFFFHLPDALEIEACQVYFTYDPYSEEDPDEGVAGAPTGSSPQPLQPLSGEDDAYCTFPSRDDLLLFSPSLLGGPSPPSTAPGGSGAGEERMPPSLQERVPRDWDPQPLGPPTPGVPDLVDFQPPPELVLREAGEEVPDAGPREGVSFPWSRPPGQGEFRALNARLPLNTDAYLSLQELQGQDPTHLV
T1 sequence (looked up) 2: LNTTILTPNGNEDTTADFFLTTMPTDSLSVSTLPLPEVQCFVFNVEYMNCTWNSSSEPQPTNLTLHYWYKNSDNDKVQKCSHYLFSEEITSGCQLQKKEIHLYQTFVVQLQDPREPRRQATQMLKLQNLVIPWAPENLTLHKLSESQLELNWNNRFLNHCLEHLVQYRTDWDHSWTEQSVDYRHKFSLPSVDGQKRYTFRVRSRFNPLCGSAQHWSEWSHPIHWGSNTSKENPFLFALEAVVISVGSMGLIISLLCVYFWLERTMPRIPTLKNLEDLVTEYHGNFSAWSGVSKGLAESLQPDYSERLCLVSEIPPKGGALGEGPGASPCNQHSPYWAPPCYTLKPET
Experiment: cell-based or functional assay
Primed or numbered codes have the meaning given here. [ ]: non-standard residue; d: D form. 8x polyethylene glycol‑amino = O-(8x polyethylene glycol-amino)-tyrosine, SITE 45; 9x polyethylene glycol‑azido = O-(9x polyethylene glycol-azido)-tyrosine, SITE 42; Ygp(4) = Tyr with amino-capped PEG8 (O-(8x polyethylene glycol-amino)-tyrosine); Yn3(4) = Tyr with azide-capped PEG9 (O-(9x polyethylene glycol-azido)-tyrosine); Ygp = O-(8x polyethylene glycol-amino)-tyrosine (Tyr, amino-capped PEG8); Yn3 = O-(9x polyethylene glycol-azido)-tyrosine (Tyr, azide-capped PEG9); Ygp″ = O-(8x polyethylene glycol-amino)-tyrosine; Yn3″ = O-(9x polyethylene glycol-azido)-tyrosine; hSer = N[C@@H](CCO)C(=O)O; Nle = CCCC[C@H](N)C(=O)O
# Lookup of reported Average EC50, pSTAT5 Assay in NK cells keyed by entry
Give just the numeric value; nM need not be written.

The following binders have reported results that may help.
Ask: What measured Average EC50, pSTAT5 Assay in NK cells goes with CMP-300, MMP2 cleaved molecule (ligand, not fully specified; ends and bridges not checked; also: cleaved by MMP2, product not given here, N-terminus linked to another sequence via PEG4, Glu23 side chain linked to another sequence) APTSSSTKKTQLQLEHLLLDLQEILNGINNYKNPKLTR[Nle]L[hSer][Yn3(4)]KF[Ygp(4)][Nle]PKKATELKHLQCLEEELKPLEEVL[hSer]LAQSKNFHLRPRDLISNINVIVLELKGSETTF[hSer]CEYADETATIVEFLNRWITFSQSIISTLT ?
Reply: 0.379

Ask: What measured Average EC50, pSTAT5 Assay in NK cells goes with CMP-311, Matriptase cleaved molecule (ligand, also: m77 after matriptase cleavage: Lys23 side-chain branch (cleavable peptide) cut, remnant not given here) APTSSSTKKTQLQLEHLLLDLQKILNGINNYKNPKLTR[Nle]L[hSer][Yn3]KF[Ygp][Nle]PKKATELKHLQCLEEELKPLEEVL[hSer]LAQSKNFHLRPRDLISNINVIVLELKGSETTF[hSer]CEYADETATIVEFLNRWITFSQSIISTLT ?
Reply: 0.512

Ask: What measured Average EC50, pSTAT5 Assay in NK cells goes with CMP-327, MMP2 cleaved molecule (ligand, ends and bridges not checked; also: Lys9-Glu23 peptide bridge cut by MMP2, fragments left on side chains not given here) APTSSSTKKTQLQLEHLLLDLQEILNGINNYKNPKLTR[Nle]L[hSer][Yn3″]KF[Ygp″][Nle]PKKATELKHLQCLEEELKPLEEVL[hSer]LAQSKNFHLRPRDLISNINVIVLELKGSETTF[hSer]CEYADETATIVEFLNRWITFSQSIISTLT ?
Reply: 0.85

Ask: What measured Average EC50, pSTAT5 Assay in NK cells goes with CMP-151, MMP2 cleaved molecule (ligand, not fully specified; also: cleaved by MMP2, cleavage product not defined, N-terminal glutaryl-PEG9 link and Lys23 side-chain attachment not defined) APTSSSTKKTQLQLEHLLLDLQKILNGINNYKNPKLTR[Nle]L[hSer][Yn3″]KF[Ygp″][Nle]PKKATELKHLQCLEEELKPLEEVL[hSer]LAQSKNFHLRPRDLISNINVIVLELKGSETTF[hSer]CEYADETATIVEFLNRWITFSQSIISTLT ?
Reply: 0.352

Ask: What measured Average EC50, pSTAT5 Assay in NK cells goes with CMP-327, uPa cleaved molecule (ligand, ends and bridges not checked; also: after uPa cleavage, remnants of the Lys9–Glu23 peptide linker not given here) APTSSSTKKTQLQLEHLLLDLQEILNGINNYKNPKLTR[Nle]L[hSer][Yn3″]KF[Ygp″][Nle]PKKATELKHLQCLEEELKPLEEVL[hSer]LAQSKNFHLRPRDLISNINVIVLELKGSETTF[hSer]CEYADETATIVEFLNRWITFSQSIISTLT ?
Reply: 12.1

Ask: What measured Average EC50, pSTAT5 Assay in NK cells goes with CMP-311, uPa cleaved molecule (ligand, also: m77 after uPa cleavage: Lys23 side-chain branch (cleavable peptide) cut, remnant not given here) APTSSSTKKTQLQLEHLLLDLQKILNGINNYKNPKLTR[Nle]L[hSer][Yn3]KF[Ygp][Nle]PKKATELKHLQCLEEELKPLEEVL[hSer]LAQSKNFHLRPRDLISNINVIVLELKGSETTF[hSer]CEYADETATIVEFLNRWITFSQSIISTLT ?
Reply: 0.548

Ask: What measured Average EC50, pSTAT5 Assay in NK cells goes with CMP-330, uPa cleaved molecule (ligand, not fully specified; also: Lys9 side chain attached to another sequence, Glu23 side chain attached to another sequence) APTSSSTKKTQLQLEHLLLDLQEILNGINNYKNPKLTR[Nle]L[hSer]Y(9x polyethylene glycol‑azido)KFY(8x polyethylene glycol‑amino)[Nle]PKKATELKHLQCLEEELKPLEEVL[hSer]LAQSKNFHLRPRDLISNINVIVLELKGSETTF[hSer]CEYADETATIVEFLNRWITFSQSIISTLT ?
Reply: 27

Ask: What measured Average EC50, pSTAT5 Assay in NK cells goes with CMP-310, MMP2 cleaved molecule (ligand, also: m73 after MMP2 cleavage: Lys23 side-chain branch (cleavable peptide) cut, remnant not given here) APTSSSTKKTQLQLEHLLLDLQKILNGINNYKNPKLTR[Nle]L[hSer][Yn3]KF[Ygp][Nle]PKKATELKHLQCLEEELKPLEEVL[hSer]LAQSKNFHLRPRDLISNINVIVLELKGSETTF[hSer]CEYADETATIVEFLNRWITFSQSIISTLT ?
Reply: 4.07

Then there is this binder:
Ask: What measured Average EC50, pSTAT5 Assay in NK cells goes with CMP-331, MMP2 cleaved molecule (ligand, not fully specified; also: N-terminus (pentanedioic acid-PEG9 linker) and Lys23 side chain attached to another sequence, what remains after MMP2 cleavage is not given here) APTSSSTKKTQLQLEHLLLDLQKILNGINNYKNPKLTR[Nle]L[hSer]Y(9x polyethylene glycol‑azido)KFY(8x polyethylene glycol‑amino)[Nle]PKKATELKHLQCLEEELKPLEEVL[hSer]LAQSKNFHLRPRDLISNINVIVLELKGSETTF[hSer]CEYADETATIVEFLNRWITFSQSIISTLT ?
Reply: 5.09
